Biological target: Rap guanine nucleotide exchange factor 4 (Homo sapiens) (UniProt Q8WZA2)
Sequence (Q8WZA2 whole entry, looked up): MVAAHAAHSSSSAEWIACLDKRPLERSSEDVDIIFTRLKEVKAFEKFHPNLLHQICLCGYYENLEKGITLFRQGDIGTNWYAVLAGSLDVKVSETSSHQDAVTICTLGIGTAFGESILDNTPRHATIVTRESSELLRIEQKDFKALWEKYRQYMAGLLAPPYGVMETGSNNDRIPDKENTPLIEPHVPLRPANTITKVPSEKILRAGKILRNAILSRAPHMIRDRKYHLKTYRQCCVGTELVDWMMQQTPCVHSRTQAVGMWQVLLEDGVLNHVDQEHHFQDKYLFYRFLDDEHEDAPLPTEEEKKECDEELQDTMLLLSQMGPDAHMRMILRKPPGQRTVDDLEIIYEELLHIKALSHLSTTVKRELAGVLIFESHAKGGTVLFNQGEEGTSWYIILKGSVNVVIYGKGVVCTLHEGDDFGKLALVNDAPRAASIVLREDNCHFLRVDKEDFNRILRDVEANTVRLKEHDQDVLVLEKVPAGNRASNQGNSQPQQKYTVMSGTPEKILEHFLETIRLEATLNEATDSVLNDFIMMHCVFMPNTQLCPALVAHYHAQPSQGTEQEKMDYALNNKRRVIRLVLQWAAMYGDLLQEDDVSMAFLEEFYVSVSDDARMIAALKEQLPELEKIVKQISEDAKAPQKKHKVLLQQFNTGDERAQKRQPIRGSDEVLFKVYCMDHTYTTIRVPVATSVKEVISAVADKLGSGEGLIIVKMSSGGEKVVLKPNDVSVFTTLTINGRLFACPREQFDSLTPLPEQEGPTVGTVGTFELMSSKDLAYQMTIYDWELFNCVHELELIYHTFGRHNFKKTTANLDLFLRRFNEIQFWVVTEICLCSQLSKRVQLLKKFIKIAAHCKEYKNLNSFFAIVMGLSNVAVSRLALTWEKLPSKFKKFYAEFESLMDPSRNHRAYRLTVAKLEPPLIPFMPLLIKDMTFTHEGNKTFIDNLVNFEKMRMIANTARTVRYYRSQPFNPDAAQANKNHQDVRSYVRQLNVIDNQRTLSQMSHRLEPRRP
Test: Confirmatory qHTS for antagonist of cAMP-regulated guanine nucleotide exchange factor 4 (EPAC2) (AID 1645885); note: nearly all actives have a fitted effect of over 25% in size
Conditions: EPAC2 Rap1B-BODIPY-GDP exchange fluorescence, biochemical; series mostly up to 12.7 µM
Records with an inconclusive call do not appear. Active and inactive are the calls of the source. Calls come from the whole dose curve; as a rule, active = well fitted inhibition curve with a large enough effect; inconclusive = small, poorly fitted or top-dose-only effect; inactive = no such curve, though single readings can be large or run the other way.
A correct response names exactly one class from label 1 for active, label 0 for inactive

Field: example entries. Status: answers known.
1. Cc1ccccc1CNC(=O)CCC(=O)N1CCSc2ccccc21	label 0
2. CC(=O)Nc1cccc(NC(=O)CSc2nc(=O)n(CCN3CCOCC3)c3c2CCCC3)c1	label 0
3. Cc1ccc(S(=O)(=O)N2[C@@H](c3ccc(Br)cc3)C(C(=O)O)=CC[C@H]2c2ccc(Cl)c(Cl)c2)cc1	label 1

Exercise: What call does the record list for CC1(C(=O)NS(=O)(=O)c2cccc(F)c2)CCN1C(=O)C1(c2ccc(Cl)cc2)CCC1 (configuration not stated) ?
Key: label 0

====

System: DIV17
Test: qHTS profiling for inhibitors of Plasmodium falciparum proliferation (AID 504749); note: nearly all actives have a fitted effect of over 60% in size
Conditions: P. falciparum in erythrocytes, SYBR Green DNA, 72 h; series mostly up to 12.8 µM
Records with an inconclusive call do not appear. Calls of active or inactive are those of the source. The call rests on the fitted dose curve; in most records, active means well fitted inhibition curve with a large enough effect; inconclusive means small, poorly fitted or top-dose-only effect; inactive means flat fitted curve, though single readings scatter.
A correct response names exactly one class from active, inactive

1) CC(C)(C)NC(=O)[C@@H]1CC[C@@H]2[C@@H]3CC[C@@H]4NC(=O)C=C[C@@]4(C)[C@H]3CC[C@]21C	inactive
2) COc1cc(N[C@@H](C)CCCN)c2ncccc2c1	active
3) Cc1ncc([N+](=O)[O-])n1C[C@H](O)CCl	inactive
4) CCOC(=O)O[C@]1(C(=O)COC(=O)CC)CC[C@@H]2[C@@H]3CCC4=CC(=O)C=C[C@@]4(C)[C@H]3[C@H](O)C[C@]21C	inactive
5) C[C@@]12C=CC(=O)C=C1CCC1C3CC(O)[C@@](O)(C(=O)CO)[C@]3(C)CC(O)[C@]12F (some centres undefined)	inactive
6) COc1ccc([C@@H]2CC(=O)c3c(O)cc(O[C@H]4O[C@@H](CO[C@H]5O[C@@H](C)[C@@H](O)[C@@H](O)[C@@H]5O)[C@@H](O)[C@@H](O)[C@@H]4O)cc3O2)cc1O	inactive
7) CO[C@]1(NC(=O)C2SC(=C(C(N)=O)C(=O)O)S2)C(=O)N2C(C(=O)O)=C(CSc3nnnn3C)CS[C@H]21 (some centres undefined)	inactive
8) Clc1ccc(CC[C@H](Cn2ccnc2)Sc2c(Cl)cccc2Cl)cc1	active

Exercise: What call does the record list for CN(C)CCc1c[nH]c2ccc(CC3COC(=O)N3)cc12 (centres undefined) ?
Key: inactive

Exercise: What call does the record list for `CCc1c(C)[nH]c2c1C(=O)[C@H](CN1CCOCC1)CC2` ?
Key: inactive

Exercise: What call does the record list for `C[C@]1(c2ccccc2)OC(C(=O)O)=CC1=O` ?
Key: inactive

Exercise: What call does the record list for `Nc1nc(NC2CC2)c2ncn([C@H]3C=C[C@@H](CO)C3)c2n1` ?
Key: inactive

Exercise: What call does the record list for `O=C(N/N=C\c1ccc([N+](=O)[O-])o1)c1ccc(O)cc1` ?
Key: active

====

Biological target: Rap guanine nucleotide exchange factor 3 (Homo sapiens) (UniProt O95398)
Sequence (O95398 whole entry, looked up): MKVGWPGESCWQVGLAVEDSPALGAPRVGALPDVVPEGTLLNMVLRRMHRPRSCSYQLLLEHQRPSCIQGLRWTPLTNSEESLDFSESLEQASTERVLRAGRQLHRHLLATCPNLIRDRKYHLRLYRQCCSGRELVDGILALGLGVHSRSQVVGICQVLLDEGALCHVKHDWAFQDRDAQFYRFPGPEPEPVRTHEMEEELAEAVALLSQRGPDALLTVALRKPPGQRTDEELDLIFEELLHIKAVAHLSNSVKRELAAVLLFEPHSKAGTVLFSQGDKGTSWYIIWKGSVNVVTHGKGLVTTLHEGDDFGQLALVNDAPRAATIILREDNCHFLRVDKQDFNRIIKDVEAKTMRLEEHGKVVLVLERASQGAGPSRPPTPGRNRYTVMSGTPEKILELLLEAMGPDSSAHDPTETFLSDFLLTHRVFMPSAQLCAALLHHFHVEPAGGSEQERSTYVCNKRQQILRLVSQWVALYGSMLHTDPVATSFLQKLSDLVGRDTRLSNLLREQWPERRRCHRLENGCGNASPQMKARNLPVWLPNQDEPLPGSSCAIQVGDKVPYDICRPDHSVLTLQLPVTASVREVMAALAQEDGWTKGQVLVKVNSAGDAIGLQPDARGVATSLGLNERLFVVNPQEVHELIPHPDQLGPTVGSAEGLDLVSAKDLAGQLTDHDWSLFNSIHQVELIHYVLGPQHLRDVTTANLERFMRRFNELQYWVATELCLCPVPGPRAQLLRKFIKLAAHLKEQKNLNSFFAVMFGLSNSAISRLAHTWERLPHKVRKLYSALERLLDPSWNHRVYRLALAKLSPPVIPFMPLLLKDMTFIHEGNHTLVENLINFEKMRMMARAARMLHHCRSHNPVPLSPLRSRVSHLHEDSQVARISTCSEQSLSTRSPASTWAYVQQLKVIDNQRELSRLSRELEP
Assay: Counterscreen qHTS for agonist of cAMP-regulated guanine nucleotide exchange factor 3 (EPAC1) (AID 1645889); note: % of control where 0% means no effect; nearly all actives have a fitted effect of over 40% in size
Settings: EPAC1 Rap1B-BODIPY-GDP exchange, fluorescence; series mostly up to 154 µM
Inconclusive results are not listed. The source made the active and inactive calls. Calls follow the shape of the dose curve; as a rule, active = well fitted activation curve with a large enough effect; inconclusive = small, poorly fitted or top-dose-only effect, or another doubt; inactive = no such curve, though single readings can be large or run the other way.
reported_property: activation

1. Nc1[nH]c(C(=O)c2ccccc2)c(-c2ccccc2C(F)(F)F)c1C(=O)NCCc1cccs1	inactive
2. COc1ccccc1Cn1c(=O)oc2ccc(C)cc21	inactive
3. CC(=O)NC(CCS(C)(=O)=O)C(=O)Nc1cc(C)on1 (configuration not stated)	inactive
4. CC(C)CC(C(=O)NC1CCCCC1)N(Cc1ccccc1)C(=O)c1snc(C(N)=O)c1N (configuration not stated)	19% [at 30.8 µM] (inactive)
5. COc1ccc(S(=O)(=O)Nc2ccc(OCC(=O)O)cc2)c2ccccc12	inactive

Exercise: I am curious: what activation value has been reported for COc1ccc(C2c3c(ncn(CCCO)c3=N)Oc3ccc4ccccc4c32)cc1 (configuration not stated) ?
Key: 22.2% [at 30.8 µM] (inactive)

Exercise: I am curious: what activation value has been reported for `O=C(CCNC(=O)c1ccc(Br)cc1)Nc1ccccc1N1CCOCC1` ?
Key: inactive

====

Experiment: qHTS Assay for Lipid Storage Modulators (AID 1519)
Details: Drosophila S3 cells, BODIPY lipid droplet/cell ratio, laser cytometry; measured here: cell count channel max response; cells loaded with oleic acid
Results filed as inconclusive are left out.
Quick list: max response per entry.
Value expressed in %; do not type the unit.

1) COc1cc2nc(N3CCN(C(=O)[C@@H]4CCCO4)CC3)nc(N)c2cc1OC	-3.95

Here's the next entry for you.
Exercise: I am curious: what max response value has been reported for `CCC[C@H]1C[C@H](C(=O)N[C@H]([C@@H]2O[C@H](SC)[C@@H](O)[C@H](O)[C@@H]2O)[C@H](C)O)N(C)C1` ?
Key: -10.3

====

Target: Rap guanine nucleotide exchange factor 3 (Homo sapiens) (UniProt O95398)
Assay: Counterscreen qHTS for antagonist of cAMP-regulated guanine nucleotide exchange factor 3 (EPAC1) (AID 1645888);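 note: fluorescence loss as bound BODIPY-GDP is released from Rap1B; % of control where 0% means no effect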
Conditions: Rap1B-BODIPY-GDP nucleotide exchange, fluorescence; series mostly up to 154 µM
Records with an inconclusive call do not appear. The source made the active and inactive calls. Calls follow the shape of the dose curve; as a rule, active = well fitted inhibition curve with a large enough effect; inconclusive = small, poorly fitted or top-dose-only effect; inactive = no such curve, though single readings can be large or run the other way.
reported_property: activity change, negative = inhibition

Below, each entry is followed by its recorded activity change, negative = inhibition result.
1) CC(C)CC1C(=O)N(Cc2cn(CCC3OCCCO3)nn2)CCS(=O)(=O)N1Cc1ccc(-c2ccccc2)cc1 (stereo unspecified)	inactive
2) Cc1ccc(C(=O)Nc2ccccc2Oc2ccccc2)o1	1.6% [at 30.8 µM] (inactive)
3) CCC(=Cc1ccccc1OC)c1ccncc1	inactive
4) CN(Cc1ccccc1N1CCCC1)C(=O)c1cc2ccccc2o1	-10.5% [at 30.8 µM] (inactive)
5) COC(=O)C1=C(C)N(Cc2ccco2)C(=O)/C1=C\c1ccc(N(C)C)cc1	inactive

Exercise: I am curious: what activity change, negative = inhibition value has been reported for `CC(C)OC(=O)c1c(-c2ccccc2)c(-c2ccccc2)nn(C)c1=O` ?
Key: inactive

====

Biological target: Rap guanine nucleotide exchange factor 3 (Homo sapiens) (UniProt O95398)
Assay: Counterscreen qHTS for antagonist of cAMP-regulated guanine nucleotide exchange factor 3 (EPAC1) (AID 1645888);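 note: fluorescence loss as bound BODIPY-GDP is released from Rap1B; % of control where 0% means no effect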
Details: Rap1B-BODIPY-GDP nucleotide exchange, fluorescence; series mostly up to 154 µM
Results filed as inconclusive are left out. The source made the active and inactive calls. Calls follow the shape of the dose curve; as a rule, active = well fitted inhibition curve with a large enough effect; inconclusive = small, poorly fitted or top-dose-only effect; inactive = no such curve, though single readings can be large or run the other way.
reported_property: activity change, negative = inhibition

Below, each entry is followed by its recorded activity change, negative = inhibition result.
1. COC(=O)c1c(SC)nc2ccccc2c1OCc1ccc(Br)cc1	inactive
2. Cc1ccc(N(Cc2cccs2)C(=O)c2ccccc2)cc1	inactive
3. Cc1ccc(-n2nc3c(=O)n(CCCC(=O)NCc4ccccc4F)nc(C)c3c2C)cc1	inactive
4. COC(=O)[C@@H]1C[C@@H](c2ccccc2)[C@H](C)C1(C)C	inactive
5. Cc1ccc(C(=O)O/N=C(\c2ccccc2)c2cccnc2)cc1	3.07% [at 30.8 µM] (inactive)
6. NS(=O)(=O)c1cc(C(=O)NC2CCSc3ccccc32)ccc1Cl (configuration not stated)	inactive
7. Cc1ccc(C)n1-c1c(C(=O)NCCC(C)C)sc2ncccc12	inactive
8. CCOC(=O)/C(=C\c1ccc(N2CCC(c3ccccc3)=N2)cc1)C(C)=O	28% [at 30.8 µM] (inactive)

Here's the next entry for you.
Exercise: I am curious: what activity change, negative = inhibition value has been reported for `O=C1/C(=C/c2ccc(F)cc2)SC(=S)N1NS(=O)(=O)c1ccccc1` ?
Key: inactive

====

Biological target: Rap guanine nucleotide exchange factor 3 (Homo sapiens) (UniProt O95398)
Experiment: Counterscreen qHTS for agonist of cAMP-regulated guanine nucleotide exchange factor 3 (EPAC1) (AID 1645889); note: % of control where 0% means no effect; nearly all actives have a fitted effect of over 40% in size
Settings: EPAC1 Rap1B-BODIPY-GDP exchange, fluorescence; series mostly up to 154 µM
Results filed as inconclusive are left out. Active and inactive are the calls of the source. Calls follow the shape of the dose curve; as a rule, active = well fitted activation curve with a large enough effect; inconclusive = small, poorly fitted or top-dose-only effect, or another doubt; inactive = no such curve, though single readings can be large or run the other way.
reported_property: activation

Below, each entry is followed by its recorded activation result.
1) COc1ccc(N2CCN(C(=O)CCc3ccccc3OC)CC2)cc1	inactive
2) O=S(=O)(NCc1ccccc1)c1ccc(S(=O)(=O)N(Cc2cccs2)CC2CCCO2)cc1 (stereo unspecified)	inactive
3) COc1cc(/C=N/NC(=O)c2ccc3c(c2)OCCO3)cc(Br)c1O	inactive
4) CCOc1ccc(NC(=O)CN(C)C(=O)c2ccccc2SCc2c(C)noc2C)cc1OCC	18% [at 30.8 µM] (inactive)
5) COc1cc2c(cc1OC)C(c1ccccc1Cl)N(C)CC2 (stereo unspecified)	9.1% [at 30.8 µM] (inactive)

Exercise: I am curious: what activation value has been reported for `Cn1c(=O)c2nc(SCC(=O)Nc3ccc(Cl)c(Cl)c3)n(C)c2n(C)c1=O` ?
Key: inactive

Exercise: I am curious: what activation value has been reported for `CCN(CC)c1nc(SCC(=O)O)nc(N(CC)CC)n1` ?
Key: inactive

Exercise: I am curious: what activation value has been reported for `CCn1c(CNC(=O)COC)nc2ccccc21` ?
Key: 4.54% [at 30.8 µM] (inactive)

Exercise: I am curious: what activation value has been reported for `CCOC(=O)c1sc2nc(-c3ccco3)c3c(c2c1N)CC(C)(C)OC3` ?
Key: 25.5% [at 30.8 µM] (inactive)

Exercise: I am curious: what activation value has been reported for `O=C1c2cccc3cccc(c23)N1Cc1ccc(F)cc1` ?
Key: 4.85% [at 30.8 µM] (inactive)

Exercise: I am curious: what activation value has been reported for `C=CCn1c(O)c(N=NC(=O)CNC(=O)/C=C/c2ccc(OC)cc2)c2ccccc21` ?
Key: inactive
